src = patent EP1144368B1

Can you tell me inhibition at 1 µM for the items I'm about to list?
target: TACE (Homo sapiens, UniProt P78536); test: TACE inhibition (fluorescent peptidyl substrate); assay type: biochemical; settings: In Vitro Inhibition of TACE, 1 uM; read-out: % Inhibition at 1 uM
Sequence (P78536 215-824): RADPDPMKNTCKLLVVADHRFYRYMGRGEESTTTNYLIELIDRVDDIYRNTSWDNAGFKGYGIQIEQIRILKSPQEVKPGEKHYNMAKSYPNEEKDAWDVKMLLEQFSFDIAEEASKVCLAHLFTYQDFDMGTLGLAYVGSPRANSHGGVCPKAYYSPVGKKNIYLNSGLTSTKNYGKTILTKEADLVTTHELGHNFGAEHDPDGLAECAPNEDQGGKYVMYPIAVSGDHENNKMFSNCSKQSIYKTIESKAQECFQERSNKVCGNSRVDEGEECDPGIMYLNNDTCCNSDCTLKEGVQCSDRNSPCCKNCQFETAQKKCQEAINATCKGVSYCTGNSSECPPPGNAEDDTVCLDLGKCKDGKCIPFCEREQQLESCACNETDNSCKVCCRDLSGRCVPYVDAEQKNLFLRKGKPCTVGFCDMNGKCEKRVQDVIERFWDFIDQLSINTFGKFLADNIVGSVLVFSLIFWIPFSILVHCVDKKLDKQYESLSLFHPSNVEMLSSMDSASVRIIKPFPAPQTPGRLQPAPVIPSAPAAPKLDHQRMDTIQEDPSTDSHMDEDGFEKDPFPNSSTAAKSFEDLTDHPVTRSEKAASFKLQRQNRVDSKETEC
// note: answer is a bare numeric in %

stdin: Request the reported inhibition at 1 µM associated with `CC#CCOc1ccc(S(=O)(=O)N[C@@H](CCC(=O)O)C(=O)NO)cc1`
stdout: 37.5

stdin: Name the recorded inhibition at 1 µM for `CC#CCOc1ccc(S(=O)(=O)N[C@@H](COCc2ccccc2)C(=O)NO)cc1` .
stdout: 67.5

stdin: # input compound: `CC#CCOc1ccc(S(=O)(=O)N[C@H](CC2CCCCC2)C(=O)NO)cc1` ; wanted: its inhibition at 1 µM
stdout: 105

stdin: inhibition at 1 µM for `CC#CCOc1ccc(S(=O)(=O)N[C@H](CC(N)=O)C(=O)NO)cc1` ?
stdout: 55.8

stdin: If you can, please state the reported inhibition at 1 µM value of `CC#CCOc1ccc(S(=O)(=O)N[C@@H](CCCC)C(=O)NO)cc1` .
stdout: 61.7

---

target: TACE (Homo sapiens, UniProt P78536); assay: TACE inhibition (fluorescent peptidyl substrate); assay type: biochemical; details: In Vitro Inhibition of TACE, 1 uM; read-out: % Inhibition at 1 uM
REPORTED_ENDPOINT: inhibition at 1 µM (%)
The reply should be a number in %, with the unit left off.

stdin: Item CC#CCOc1ccc(S(=O)(=O)N[C@H](CCSC)C(=O)NO)cc1 [Example 80] has what recorded inhibition at 1 µM?
stdout: 105

stdin: Look up inhibition at 1 µM: CC#CCOc1ccc(S(=O)(=O)N[C@H](C(=O)NO)C2CCCCC2)cc1 [Example 72]
stdout: 57.4

stdin: I'd like to know its inhibition at 1 µM. The molecule in question is CC#CCOc1ccc(S(=O)(=O)N[C@@H](CCCNC(=N)N)C(=O)NO)cc1 [Example 64]
stdout: 67.4

stdin: // lookup inhibition at 1 µM for CC#CCOc1ccc(S(=O)(=O)N[C@@H](CSCc2ccc(OC)cc2)C(=O)NO)cc1 [Example 74]
stdout: 73.8
